Reference source for all entries: patent US7138423B2

EXPERIMENTAL_SYSTEM: human serotonin transporters (Homo sapiens)
Construct: expressed in transfected cells; host or cells: HEK-293 cells stably expressing hSERT (G418 selection), membranes
Sequence (P31645 whole entry): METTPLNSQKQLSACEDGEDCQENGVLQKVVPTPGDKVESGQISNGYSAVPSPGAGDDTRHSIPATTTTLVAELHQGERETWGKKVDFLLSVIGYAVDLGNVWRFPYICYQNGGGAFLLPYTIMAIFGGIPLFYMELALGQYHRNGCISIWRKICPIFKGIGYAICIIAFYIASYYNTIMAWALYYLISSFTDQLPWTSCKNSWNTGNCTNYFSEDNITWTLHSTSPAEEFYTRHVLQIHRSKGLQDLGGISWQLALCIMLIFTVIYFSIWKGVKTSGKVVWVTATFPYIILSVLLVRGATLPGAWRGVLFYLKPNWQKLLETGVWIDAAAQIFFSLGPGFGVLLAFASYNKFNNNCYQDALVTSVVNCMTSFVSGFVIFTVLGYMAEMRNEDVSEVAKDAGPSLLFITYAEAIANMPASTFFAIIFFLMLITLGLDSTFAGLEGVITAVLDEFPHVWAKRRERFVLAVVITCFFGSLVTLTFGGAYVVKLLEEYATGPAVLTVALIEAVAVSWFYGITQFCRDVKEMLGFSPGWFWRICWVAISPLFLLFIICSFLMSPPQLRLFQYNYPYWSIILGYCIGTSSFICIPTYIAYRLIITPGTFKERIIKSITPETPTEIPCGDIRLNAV
MEASUREMENT_PROTOCOL: Serotonin transporter binding assay, [3H]-citalopram, HEK-hSERT membranes
TEST_PARAMETERS: HEK-hSERT membranes, 1 nM [3H]-citalopram displacement; read-out: SERT IC50
pIC50: −log10 of the molar value. Structures can show the parent of a compound that is named as a salt.
Field: pIC50. Provide a value for each of the compounds that follow.

Prompt line: I would be grateful if you could share the reported pIC50 for FC(F)(F)c1cc(OCC2CNCC2c2ccccc2)cc(C(F)(F)F)c1 (centres unmarked) [Example 10, trifluoroacetic acid salt] .
Response line: 7.00 to 7.70

Prompt line: Can you check Cc1cc(C)cc(OC[C@@H]2CNC[C@H]2c2ccccc2)c1 (relative stereo) [Example 11, hydrochloride] next?
Response line: 7.00 to 7.70

----------
EXPERIMENTAL_SYSTEM: neurokinin-1 (NK-1) receptor (Homo sapiens)
Construct: a human glioblastoma-astrocytoma cell line that endogenously expresses the neurokinin-1 (NK-1) receptor; endogenous in cells
Sequence (P25103 whole entry): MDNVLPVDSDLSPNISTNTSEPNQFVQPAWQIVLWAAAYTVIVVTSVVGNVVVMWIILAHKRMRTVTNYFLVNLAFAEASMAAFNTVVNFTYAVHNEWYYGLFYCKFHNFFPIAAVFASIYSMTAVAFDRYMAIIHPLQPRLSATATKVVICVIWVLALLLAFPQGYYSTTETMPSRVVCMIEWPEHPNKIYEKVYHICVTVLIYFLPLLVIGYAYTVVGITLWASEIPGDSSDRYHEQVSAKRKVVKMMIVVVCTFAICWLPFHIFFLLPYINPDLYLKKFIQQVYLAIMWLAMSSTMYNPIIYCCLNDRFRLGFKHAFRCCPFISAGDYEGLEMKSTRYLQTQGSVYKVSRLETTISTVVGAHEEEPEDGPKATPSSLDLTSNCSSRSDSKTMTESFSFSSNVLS
MEASUREMENT_PROTOCOL: NK-1 binding, [125I] Substance P competition, U373 cell membranes
TEST_PARAMETERS: U373 membranes, Bolton Hunter [125I] Substance P displacement
Counter-ions that a name gives are not always drawn.
Field: IC50. Provide a value for each of the compounds that follow.

Prompt line: I would be grateful if you could share the reported IC50 for FC(F)(F)c1cc(COC[C@@H]2CNC[C@H]2c2c[nH]c3ccccc23)cc(C(F)(F)F)c1 (relative stereo) .
Response line: 100 to 300 nM

Prompt line: Can you check Cc1cc(C)cc(COCC2CNCC2c2ccccc2)c1 (centres unmarked) next?
Response line: 100 to 300 nM

Prompt line: Can you check FC(F)(F)c1cc(OCC2CNCC2c2ccccc2)cc(C(F)(F)F)c1 (centres unmarked) [Example 10, trifluoroacetic acid salt] next?
Response line: 100 to 300 nM

Prompt line: Can you check FC(F)(F)c1cc(COC[C@@H]2CNC[C@H]2c2ccccc2)cc(C(F)(F)F)c1 (relative stereo) [Example 1, hydrochloride] next?
Response line: 20 to 100 nM

Prompt line: Can you check FC(F)(F)c1cc(OC[C@@H]2CNC[C@H]2c2c[nH]c3ccccc23)cc(C(F)(F)F)c1 (relative stereo) next?
Response line: 100 to 300 nM
